Sourced from patent USRE48461E1

Test system: AR mRNA
Assay: Dose-dependent antisense inhibition of human AR in HuVEC cells (electroporation, qRT-PCR RTS3559, IC50)
Type: cell-based
Settings: 166.7 nM; HuVEC, ~16 h; Table 4
Protocol: After a treatment period of approximately 16 hours, RNA was isolated from the cells and AR mRNA levels were measured by quantitative real-time PCR. Human AR primer probe set RTS3559 was used to measure mRNA levels. AR mRNA levels were adjusted according to total RNA content, as measured by RIBOGREEN®. […] After a treatment period of approximately 16 hours, RNA was isolated from the cells and AR mRNA levels were measured by quantitative real-time PCR. […]
Oligonucleotides are written 5' to 3', each unit as a sugar letter and its base; * is a phosphorothioate linkage, no mark a phosphodiester; rarer units and linkages stand in square brackets, end groups in braces. Plain capitals give the bases only. k = constrained ethyl (cEt); [5mC] = 5-methylcytosine; d = 2'-deoxy (DNA)
Decide by percent inhibition of AR: equal to or exceeding 60% means satisfied, less means not satisfied.

Worked examples follow.
# Substance, Answer label
records = [
    ("549458 (kG*kT*kT*dG*dA*dT*dT*dT*dA*dA*dT*dG*dG*kT*kT*kG) [compound 549458]", "satisfied"),
    ("549387 (kA*kG*k[5mC]*dT*dT*d[5mC]*dA*dT*d[5mC]*dT*d[5mC]*d[5mC]*dA*k[5mC]*kA*kG; antisense) [compound 549387]", "not satisfied"),
    ("549457 (kT*kT*kG*dA*dT*dT*dT*dA*dA*dT*dG*dG*dT*kT*kG*k[5mC]) [compound 549457]", "satisfied"),
    ("549432 (kG*kA*kG*dG*dA*dT*d[5mC]*dA*dT*d[5mC]*dA*d[5mC]*dA*kG*kA*kT) [compound 549432]", "not satisfied"),
    ("549366 (k[5mC]*kT*kT*dG*d[5mC]*d[5mC]*dT*dG*d[5mC]*dG*d[5mC]*dT*dG*kT*k[5mC]*kG; antisense) [compound 549366]", "not satisfied"),
]

Alright, here's another substance for you.
Query string: Record 549338 (kG*kG*k[5mC]*dT*dG*dT*dG*dA*dT*dG*dA*dT*dG*k[5mC]*kG*kG; antisense) [compound 549338] ; criterion: percent inhibition of AR no lower than 60%. Met?
Result string: not satisfied

###

Test system: AR mRNA
Experiment: Dose-dependent antisense inhibition of human AR in HuVEC cells (electroporation, qRT-PCR RTS3559, IC50)
Format: cell-based
Conditions: Table 36; HuVEC, electroporation, approximately 16 hours
Oligonucleotides are written 5' to 3', each unit as a sugar letter and its base; * is a phosphorothioate linkage, no mark a phosphodiester; rarer units and linkages stand in square brackets, end groups in braces. Plain capitals give the bases only. k = constrained ethyl (cEt); [5mC] = 5-methylcytosine; d = 2'-deoxy (DNA)
Entries and their measured pIC50 follow.
// scale note: pIC50 = -log10(conc_M); give the bare number

Check out these entries, answers already filled in.
# Substance, System under test, Assay metric, Recorded value
rows = [
    ("584274 (kG*kT*kT*dA*dT*d[5mC]*dT*dT*dA*d[5mC]*dT*d[5mC]*dT*k[5mC]*k[5mC]*k[5mC]; antisense) [compound 584274]", "AR mRNA", "pIC50", 6.64),
    ("584495 (kA*kT*kG*dG*dT*dT*dG*dT*d[5mC]*d[5mC]*dT*dG*dT*kA*k[5mC]*kA; antisense) [compound 584495]", "AR mRNA", "pIC50", 6.19),
    ("584233 (kG*kG*kA*dT*dT*d[5mC]*dT*d[5mC]*dT*dA*d[5mC]*dA*d[5mC]*kA*k[5mC]*kA; antisense) [compound 584233]", "AR mRNA", "pIC50", 6.41),
    ("584361 (k[5mC]*kT*kT*d[5mC]*dA*dT*dT*dG*d[5mC]*dA*dG*dG*dT*k[5mC]*kT*kG; antisense) [compound 584361]", "AR mRNA", "pIC50", 6.39),
    ("584469 (kT*kT*kT*dG*dG*dT*dA*dA*d[5mC]*dA*dT*dT*dA*kG*kG*k[5mC]; antisense) [compound 584469]", "AR mRNA", "pIC50", 6.66),
    ("584245 (kA*kG*kG*dT*dT*dA*dG*dG*dG*dA*dG*dT*dA*kG*kG*k[5mC]; antisense) [compound 584245]", "AR mRNA", "pIC50", 6.49),
    ("549372 (kA*kA*kG*dT*dT*dG*dT*dA*dG*dT*dA*dG*dT*k[5mC]*kG*k[5mC]) [compound 549372]", "AR mRNA", "pIC50", 6.38),
    ("584157 (kT*kT*kG*dA*dT*dG*dG*dA*dA*dT*dG*d[5mC]*dT*kG*kA*kT; antisense) [compound 584157]", "AR mRNA", "pIC50", 6.23),
]

Query string: What value of pIC50 has been recorded for this entry: 584168 (k[5mC]*kT*kG*dA*dT*dT*dA*dG*d[5mC]*dT*dA*dT*dG*kA*k[5mC]*k[5mC]; antisense) [compound 584168]
Result string: 6.49

Query string: What value of pIC50 has been recorded for this entry: 584269 (k[5mC]*k[5mC]*kT*dT*dA*dT*dG*dG*dA*dT*dG*d[5mC]*dT*kG*k[5mC]*kT) [compound 584269]
Result string: 6.47

Query string: What value of pIC50 has been recorded for this entry: 584158 (kG*kG*kT*dT*dA*dA*d[5mC]*dT*dT*dT*d[5mC]*dT*d[5mC]*kT*kG*kA; antisense) [compound 584158]
Result string: 6.59

Query string: What value of pIC50 has been recorded for this entry: 584329 (kG*kG*kT*dT*dA*dT*dG*dG*dT*dT*d[5mC]*dT*dG*kT*k[5mC]*kT; antisense) [compound 584329]
Result string: 6.34

Query string: What value of pIC50 has been recorded for this entry: 584165 (kT*k[5mC]*kA*dA*dT*d[5mC]*dT*dA*dG*dA*dT*dA*d[5mC]*k[5mC]*kA*kT; antisense) [compound 584165]
Result string: 6.52
